Reference for the values: ChEMBL document CHEMBL1201862

Target: Fatty acid synthase (Homo sapiens, UniProt P49327)
Sequence (P49327 whole entry): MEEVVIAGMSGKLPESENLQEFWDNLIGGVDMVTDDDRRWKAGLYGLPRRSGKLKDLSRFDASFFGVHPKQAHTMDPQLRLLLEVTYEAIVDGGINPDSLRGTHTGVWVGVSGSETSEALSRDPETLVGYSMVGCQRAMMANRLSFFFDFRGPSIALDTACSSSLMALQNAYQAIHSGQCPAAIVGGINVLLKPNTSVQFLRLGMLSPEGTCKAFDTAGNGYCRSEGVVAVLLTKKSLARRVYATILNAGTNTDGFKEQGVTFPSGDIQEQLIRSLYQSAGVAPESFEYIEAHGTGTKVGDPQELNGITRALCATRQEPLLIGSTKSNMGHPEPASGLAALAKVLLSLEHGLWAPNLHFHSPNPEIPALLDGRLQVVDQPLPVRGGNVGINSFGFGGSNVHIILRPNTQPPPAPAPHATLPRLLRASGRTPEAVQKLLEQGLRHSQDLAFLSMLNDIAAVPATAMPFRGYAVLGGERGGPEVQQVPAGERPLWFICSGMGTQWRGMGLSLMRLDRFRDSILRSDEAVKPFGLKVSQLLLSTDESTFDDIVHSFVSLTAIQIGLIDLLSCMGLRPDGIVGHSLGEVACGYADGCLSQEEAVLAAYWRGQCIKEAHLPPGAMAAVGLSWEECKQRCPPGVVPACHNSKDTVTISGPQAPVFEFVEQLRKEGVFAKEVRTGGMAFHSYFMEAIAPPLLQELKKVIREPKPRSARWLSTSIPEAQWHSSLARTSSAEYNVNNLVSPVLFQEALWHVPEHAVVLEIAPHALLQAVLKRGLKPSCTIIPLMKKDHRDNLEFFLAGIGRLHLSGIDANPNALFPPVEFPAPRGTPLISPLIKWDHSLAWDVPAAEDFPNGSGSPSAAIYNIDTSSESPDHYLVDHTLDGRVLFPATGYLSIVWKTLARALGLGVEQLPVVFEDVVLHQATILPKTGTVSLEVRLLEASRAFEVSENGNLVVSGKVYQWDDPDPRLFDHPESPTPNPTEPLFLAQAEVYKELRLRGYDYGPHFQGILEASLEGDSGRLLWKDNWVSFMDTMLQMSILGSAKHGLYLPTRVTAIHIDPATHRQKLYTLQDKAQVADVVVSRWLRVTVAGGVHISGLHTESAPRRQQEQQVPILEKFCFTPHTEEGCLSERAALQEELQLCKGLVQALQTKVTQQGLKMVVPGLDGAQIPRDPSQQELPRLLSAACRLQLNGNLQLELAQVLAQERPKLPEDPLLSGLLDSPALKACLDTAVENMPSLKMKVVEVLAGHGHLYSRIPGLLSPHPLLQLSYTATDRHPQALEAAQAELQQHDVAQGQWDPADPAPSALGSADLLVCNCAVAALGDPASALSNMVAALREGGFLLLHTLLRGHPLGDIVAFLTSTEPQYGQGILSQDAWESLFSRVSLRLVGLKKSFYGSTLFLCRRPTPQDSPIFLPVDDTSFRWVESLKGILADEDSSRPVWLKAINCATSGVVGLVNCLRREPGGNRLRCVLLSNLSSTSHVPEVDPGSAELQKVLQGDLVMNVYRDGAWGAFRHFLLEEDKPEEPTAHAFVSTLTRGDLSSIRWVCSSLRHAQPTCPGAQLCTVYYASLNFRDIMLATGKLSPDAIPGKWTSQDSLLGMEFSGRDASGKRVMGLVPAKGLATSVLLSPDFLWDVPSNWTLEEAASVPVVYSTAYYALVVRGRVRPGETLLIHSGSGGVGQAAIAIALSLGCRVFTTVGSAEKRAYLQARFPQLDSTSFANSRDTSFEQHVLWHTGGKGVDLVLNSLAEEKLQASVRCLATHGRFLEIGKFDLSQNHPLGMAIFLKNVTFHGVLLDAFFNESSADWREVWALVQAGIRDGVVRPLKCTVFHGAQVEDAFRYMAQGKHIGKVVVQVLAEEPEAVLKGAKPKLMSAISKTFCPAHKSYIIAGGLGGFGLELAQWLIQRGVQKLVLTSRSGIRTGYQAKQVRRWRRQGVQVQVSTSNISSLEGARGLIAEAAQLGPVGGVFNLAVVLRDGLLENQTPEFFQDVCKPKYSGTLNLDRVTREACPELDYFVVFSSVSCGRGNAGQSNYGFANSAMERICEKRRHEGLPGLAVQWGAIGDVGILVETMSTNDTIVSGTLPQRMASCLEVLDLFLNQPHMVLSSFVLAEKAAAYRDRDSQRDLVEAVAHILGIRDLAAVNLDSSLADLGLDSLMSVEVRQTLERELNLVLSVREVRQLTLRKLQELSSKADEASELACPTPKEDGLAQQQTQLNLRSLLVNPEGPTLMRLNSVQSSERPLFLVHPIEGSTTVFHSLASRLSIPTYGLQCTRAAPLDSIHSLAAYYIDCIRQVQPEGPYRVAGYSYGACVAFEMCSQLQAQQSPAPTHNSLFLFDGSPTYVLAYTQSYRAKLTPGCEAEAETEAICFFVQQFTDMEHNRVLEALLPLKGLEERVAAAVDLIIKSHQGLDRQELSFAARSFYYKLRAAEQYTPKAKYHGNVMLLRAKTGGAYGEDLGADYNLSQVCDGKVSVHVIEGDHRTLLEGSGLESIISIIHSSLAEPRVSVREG
Assay: inhibition of human FAS-TE enzyme activity – biochemical, kinetic fluorescence intensity, dose response (AID 624326);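 further: rate of fluorescence rise from hydrolysis of a fluorogenic O-methyl fluorescein ester substrate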
Format: functional
Calls of active or inactive are those of the source.

| input_smiles | IC50 |
| --- | --- |
| O=C(CSc1ncnc2c1cnn2-c1ccccc1)NC1CCCC1 | 5.67 µM (active) |
| CN(C)C=O.O=C(O)c1ccccc1NS(=O)(=O)c1ccc(NN=Cc2ccc(F)cc2)c([N+](=O)[O-])c1 | 4.43 µM (active) |
| Cc1ccc(S(=O)(=O)ON2C(=O)c3ccccc3C2=O)c(C)c1 | 1.39 µM (active) |
| Cc1ccc(C(=O)O/N=C(\N)Cc2cccs2)cc1[N+](=O)[O-] | 8.33 µM (active) |
| O=C(COC(=O)c1cc([N+](=O)[O-])ccc1Cl)NCCc1ccccc1 | 5.26 µM (active) |
| CCc1nc2c(OCc3ccc(C(F)(F)F)cc3)cccn2c1N(C=O)Cc1ccc(OC)cc1 | 9.21 µM (active) |
| CC(C)N1CCc2c(sc(NC(=O)c3ccc([N+](=O)[O-])o3)c2C(N)=O)C1 | 5.65 µM (active) |

---

Endpoint: AC50. System: Cytochrome P450 3A4 (Homo sapiens, UniProt P08684). Items follow.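 Further: CYP3A4 tested as one member of a cytochrome P450 panel screen.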
Sequence (P08684 whole entry): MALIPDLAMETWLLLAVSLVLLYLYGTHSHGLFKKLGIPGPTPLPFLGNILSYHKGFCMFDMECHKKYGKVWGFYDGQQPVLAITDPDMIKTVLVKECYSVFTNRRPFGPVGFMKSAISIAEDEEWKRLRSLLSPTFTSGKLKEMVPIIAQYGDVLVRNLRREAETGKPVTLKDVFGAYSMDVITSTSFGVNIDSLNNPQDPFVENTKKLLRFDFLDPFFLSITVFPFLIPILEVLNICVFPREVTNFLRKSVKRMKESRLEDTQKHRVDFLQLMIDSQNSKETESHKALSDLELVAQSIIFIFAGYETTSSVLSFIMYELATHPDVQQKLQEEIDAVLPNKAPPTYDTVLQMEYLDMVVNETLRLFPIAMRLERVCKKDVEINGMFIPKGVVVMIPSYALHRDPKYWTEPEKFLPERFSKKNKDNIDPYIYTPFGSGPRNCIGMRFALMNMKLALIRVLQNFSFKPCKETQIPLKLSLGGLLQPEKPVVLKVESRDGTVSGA

| input_smiles | system_name | AC50 |
| --- | --- | --- |
| COc1cc(NC(=O)c2ccccc2)c(OC)cc1NC(=O)CN1CCN(c2ccccn2)CC1 | Cytochrome P450 3A4 (Homo sapiens, UniProt P08684) | 12.6 µM (inconclusive) |
| COC(=O)[C@@]1(Cc2ccc(F)cc2)[C@H]2c3cc(C(=O)N4CCCC4)n(Cc4ccc(S(C)(=O)=O)cc4)c3C[C@H]2CN1C(=O)c1ccccc1 | Cytochrome P450 3A4 (Homo sapiens, UniProt P08684) | 1.26 µM (inconclusive) |
| CCN1C/C(=C\c2cccc(C)c2)c2nc3ccccc3c(C(=O)O)c2C1 | Cytochrome P450 3A4 (Homo sapiens, UniProt P08684) | 25.1 µM (inconclusive) |
| Cc1cc(C)c2nc(-c3ccccn3)cc(C(=O)Nc3ccc(S(=O)(=O)Nc4cc(C)on4)cc3)c2c1 | Cytochrome P450 3A4 (Homo sapiens, UniProt P08684) | 17.8 µM (inconclusive) |
| CCOC(=O)c1c2c(n3ccccc13)C(=O)c1ccccc1C2=O | Cytochrome P450 3A4 (Homo sapiens, UniProt P08684) | 3.16 µM (inconclusive) |
| COc1ccc(-n2c(=O)c(C)nc3cnc(N(C)C)nc32)cc1 | Cytochrome P450 3A4 (Homo sapiens, UniProt P08684) | 20 µM (inconclusive) |
| COCCn1c(=O)c(-c2ccc(OC)cc2)nc2cnc(Nc3cccc(OC)c3)nc21 | Cytochrome P450 3A4 (Homo sapiens, UniProt P08684) | 5.01 µM (inconclusive) |
| O=C(O)c1ccccc1-c1ccccc1C(=O)Nc1ccc2c(c1)[nH]c(=O)c1ccccc12 | Cytochrome P450 3A4 (Homo sapiens, UniProt P08684) | 3.98 µM (inconclusive) |
| O=C(NCc1ccc(F)cc1)C1CCN(S(=O)(=O)N2CCCCC2)CC1 | Cytochrome P450 3A4 (Homo sapiens, UniProt P08684) | 14.1 µM (inconclusive) |

---

Test: cells
Type: functional, cell-based
Active and inactive are the calls of the source.
quantity: EC50

| molecule | quantity | observed_result |
| --- | --- | --- |
| CC12CC3(C)CC(C)(C1)CC(C(=O)NCCc1ccc(S(N)(=O)=O)cc1)(C2)C3 | EC50 | > 350 µM (not active) |
| Nc1ncnc2c1ncn2CCN1CCOCC1 | EC50 | > 350 µM (not active) |
| Cc1ccc(C2(C)NC(=O)N(CC(=O)Nc3ccccc3N3CCCC3)C2=O)cc1 (stereo not given) | EC50 | > 350 µM (not active) |
| Oc1ccc(Br)cc1/C=N/Nc1ccccn1 | EC50 | 22.5 µM (active) |
| COCCNC(=O)C(=O)NCC1OCCN1S(=O)(=O)c1cc(F)ccc1F (stereo not given) | EC50 | > 350 µM (not active) |
